# Assay procedure: Stabilization of ds 5'-FAM-d(TATAGCTATA-HEG-TATAGCTATA)-TAMRA-3' (unknown origin) assessed as change in melting temperature at 10 microM measured after 15 mins by FRET assay
# Experimental conditions: Homo sapiens
Recorded ΔTm determines the group label, using c1: < 3 °C; c2: ≥ 3 °C and < 4 °C; c3: ≥ 4 °C

Molecule: O=c1c2ccccc2n2cnc3ccc(NCCCN4CCN(CCCNc5c6ccccc6nc6cccc([N+](=O)[O-])c56)CC4)c1c32
Label value: c3
//
Molecule: Cc1cc(C(N)CCN2CCN(CCCNc3ccc4ncn5c6ccccc6c(=O)c3c45)CC2)c([N+](=O)[O-])c2cc3ccccc3nc12 (stereo not given)
Label value: c2
//
Molecule: Cc1ccc(NCCCN2CCN(CCCNc3c4ccccc4nc4cccc([N+](=O)[O-])c34)CC2)c2c(=O)c3cc(O)ccc3[nH]c12
Label value: c1
//
Molecule: O=c1c2cc(O)ccc2n2cnc3ccc(NCCCN4CCN(CCCNc5c6ccccc6nc6cccc([N+](=O)[O-])c56)CC4)c1c32
Label value: c2
//
Molecule: NC(CCN1CCN(CCCNc2ccc3nnn4c5ccc(O)cc5c(=O)c2c34)CC1)c1ccc2nc3ccccc3cc2c1[N+](=O)[O-] (stereo not given)
Label value: c3
//
Molecule: O=c1c2ccccc2n2cnc3ccc(NCCNc4c5ccccc5nc5cccc([N+](=O)[O-])c45)c1c32
Label value: c3
//
Molecule: O=c1c2cc(O)ccc2[nH]c2c([N+](=O)[O-])ccc(NCCCN3CCN(CCCNc4c5ccccc5nc5cccc([N+](=O)[O-])c45)CC3)c12
Label value: c2
//
Molecule: Cc1cc(NCCCN(C)CCCNc2ccc3ncn4c5ccc(O)cc5c(=O)c2c34)c([N+](=O)[O-])c2cc3ccccc3nc12
Label value: c1
//
Molecule: Cc1ccc([N+](=O)[O-])c2c(NCCCN3CCN(CCCNc4ccc5ncn6c7ccc(O)cc7c(=O)c4c56)CC3)c3ccccc3nc12
Label value: c3
//
Molecule: Cc1ccc([N+](=O)[O-])c2c(NCCCN(C)CCCNc3ccc([N+](=O)[O-])c4[nH]c5ccccc5c(=O)c34)c3ccccc3nc12
Label value: c1
//
Molecule: O=c1c2ccccc2[nH]c2c([N+](=O)[O-])ccc(NCCCN3CCN(CCCNc4c5ccccc5nc5cccc([N+](=O)[O-])c45)CC3)c12
Label value: c2
//
Molecule: Cc1cc(NCCCN(C)CCCNc2ccc3ncn4c5ccccc5c(=O)c2c34)c([N+](=O)[O-])c2cc3ccccc3nc12
Label value: c2
//
Molecule: Cc1ccc([N+](=O)[O-])c2c(NCCCN3CCN(CCCNc4ccc([N+](=O)[O-])c5[nH]c6ccccc6c(=O)c45)CC3)c3ccccc3nc12
Label value: c1
//
Molecule: COc1ccc2c(c1)c(=O)c1c(NCCCN3CCN(CCC(N)c4ccc5nc6ccccc6cc5c4[N+](=O)[O-])CC3)ccc3ncn2c31 (stereo not given)
Label value: c3

====

// reported pIC50 per item
# Tested on: DU-145
# Assay procedure: Cytotoxicity against human DU-145 cells assessed as reduction in cell viability measured after 72 hrs by SRB assay
# Assay type: functional, cell-based
# Experimental conditions: DU-145, 72 h
pIC50: −log10 of the molar value.

Chemical string: Cc1cc(NCCCN(C)CCCNc2ccc3ncn4c5ccccc5c(=O)c2c34)c([N+](=O)[O-])c2cc3ccccc3nc12
pIC50: 7.19
//
Chemical string: Cc1ccc([N+](=O)[O-])c2c(NCCNCCNc3ccc(C)c4[nH]c5ccccc5c(=O)c34)c3ccccc3nc12
pIC50: 6.22
//
Chemical string: CN(CCCNc1c2ccccc2nc2cccc([N+](=O)[O-])c12)CCCNc1ccc([N+](=O)[O-])c2[nH]c3ccccc3c(=O)c12
pIC50: 7.62
//
Chemical string: Cc1ccc([N+](=O)[O-])c2c(NCCCN(C)CCCNc3ccc([N+](=O)[O-])c4[nH]c5ccc(O)cc5c(=O)c34)c3ccccc3nc12
pIC50: 7.14
//
Chemical string: CN(CCCNc1c2ccccc2nc2cccc([N+](=O)[O-])c12)CCCNc1ccc([N+](=O)[O-])c2[nH]c3ccc(O)cc3c(=O)c12
pIC50: 7.37
//
Chemical string: O=c1c2ccccc2[nH]c2c([N+](=O)[O-])ccc(NCCCNCCNCCCNc3c4ccccc4nc4cccc([N+](=O)[O-])c34)c12
pIC50: 7.26

====

// reported ΔTm per item
# System: Quadruplex DNA
# Assay procedure: Stabilization of 5'-FAM/3'-TAMRA labeled c-Myc promoter G4 quadruplex DNA FPu18 (unknown origin) assessed as change in melting temperature at 10 microM measured after 15 mins by FRET assay
# Assay type: nucleic-acid assay

Molecule: O=c1c2ccccc2n2cnc3ccc(NCCCN4CCN(CCCNc5c6ccccc6nc6cccc([N+](=O)[O-])c56)CC4)c1c32
ΔTm (°C): 23.3

Molecule: Cc1ccc(NCCCN2CCN(CCCNc3c4ccccc4nc4cccc([N+](=O)[O-])c34)CC2)c2c(=O)c3cc(O)ccc3[nH]c12
ΔTm (°C): 17.9

Molecule: Cc1cc(NCCCN(C)CCCNc2ccc3ncn4c5ccc(O)cc5c(=O)c2c34)c([N+](=O)[O-])c2cc3ccccc3nc12
ΔTm (°C): 27.6

Molecule: O=c1c2cc(O)ccc2[nH]c2c([N+](=O)[O-])ccc(NCCCN3CCN(CCCNc4c5ccccc5nc5cccc([N+](=O)[O-])c45)CC3)c12
ΔTm (°C): 32.6

Molecule: Cc1ccc(NCCNCCNc2c3ccccc3nc3cccc([N+](=O)[O-])c23)c2c(=O)c3ccccc3[nH]c12
ΔTm (°C): 28.5

Molecule: Cc1ccc([N+](=O)[O-])c2c(NCCCN3CCN(CCCNc4ccc([N+](=O)[O-])c5[nH]c6ccccc6c(=O)c45)CC3)c3ccccc3nc12
ΔTm (°C): 19.4

Molecule: O=c1c2cc(O)ccc2n2cnc3ccc(NCCCN4CCN(CCCNc5c6ccccc6nc6cccc([N+](=O)[O-])c56)CC4)c1c32
ΔTm (°C): 28.5

Molecule: NC(CCN1CCN(CCCNc2ccc3nnn4c5ccc(O)cc5c(=O)c2c34)CC1)c1ccc2nc3ccccc3cc2c1[N+](=O)[O-] (stereo unspecified)
ΔTm (°C): 37.5

Molecule: O=c1c2ccccc2n2cnc3ccc(NCCNc4c5ccccc5nc5cccc([N+](=O)[O-])c45)c1c32
ΔTm (°C): 19.3

Molecule: Cc1cc(C(N)CCN2CCN(CCCNc3ccc4ncn5c6ccccc6c(=O)c3c45)CC2)c([N+](=O)[O-])c2cc3ccccc3nc12 (stereo unspecified)
ΔTm (°C): 27

Molecule: CN(CCCNc1c2ccccc2nc2cccc([N+](=O)[O-])c12)CCCNc1ccc([N+](=O)[O-])c2[nH]c3ccc(O)cc3c(=O)c12
ΔTm (°C): 26.3

====

# Test system: Quadruplex DNA
# Assay procedure: Stabilization of 5'-FAM/3'-TAMRA labeled telomeric G4 quadruplex DNA F21T (unknown origin) assessed as change in melting temperature at 10 microM measured after 15 mins by FRET assay
# Type: nucleic-acid assay
// reported ΔTm per item

Compound: Cc1ccc(NCCCN2CCN(CCCNc3c4ccccc4nc4cccc([N+](=O)[O-])c34)CC2)c2c(=O)c3cc(O)ccc3[nH]c12
ΔTm: 7.3 °C
//
Compound: O=c1c2ccccc2n2cnc3ccc(NCCCN4CCN(CCCNc5c6ccccc6nc6cccc([N+](=O)[O-])c56)CC4)c1c32
ΔTm: 30 °C
//
Compound: NC(CCN1CCN(CCCNc2ccc3nnn4c5ccccc5c(=O)c2c34)CC1)c1ccc2nc3ccccc3cc2c1[N+](=O)[O-] (stereo unspecified)
ΔTm: 26.1 °C
//
Compound: NC(CCN1CCN(CCCNc2ccc3nnn4c5ccc(O)cc5c(=O)c2c34)CC1)c1ccc2nc3ccccc3cc2c1[N+](=O)[O-] (stereo unspecified)
ΔTm: 27.5 °C
//
Compound: Cc1cc(NCCCN(C)CCCNc2ccc3ncn4c5ccc(O)cc5c(=O)c2c34)c([N+](=O)[O-])c2cc3ccccc3nc12
ΔTm: 18.3 °C
//
Compound: O=c1c2cc(O)ccc2n2cnc3ccc(NCCCN4CCN(CCCNc5c6ccccc6nc6cccc([N+](=O)[O-])c56)CC4)c1c32
ΔTm: 9.2 °C
//
Compound: Cc1ccc([N+](=O)[O-])c2c(NCCCN(C)CCCNc3ccc([N+](=O)[O-])c4[nH]c5ccccc5c(=O)c34)c3ccccc3nc12
ΔTm: 6.8 °C
//
Compound: Cc1ccc(NCCNCCNc2c3ccccc3nc3cccc([N+](=O)[O-])c23)c2c(=O)c3ccccc3[nH]c12
ΔTm: 37.7 °C
//
Compound: Cc1ccc([N+](=O)[O-])c2c(NCCCN3CCN(CCCNc4ccc([N+](=O)[O-])c5[nH]c6ccccc6c(=O)c45)CC3)c3ccccc3nc12
ΔTm: 8.7 °C
//
Compound: O=c1c2ccccc2n2cnc3ccc(NCCNc4c5ccccc5nc5cccc([N+](=O)[O-])c45)c1c32
ΔTm: 31.6 °C
//
Compound: Cc1cc(NCCCN(C)CCCNc2ccc3ncn4c5ccccc5c(=O)c2c34)c([N+](=O)[O-])c2cc3ccccc3nc12
ΔTm: 23.3 °C
